Data credit: patent US20240398812A1

# test system: TRPML3 (Homo sapiens)
# Construct: expressed in transfected cells
# Sequence (Q8TDD5 whole entry): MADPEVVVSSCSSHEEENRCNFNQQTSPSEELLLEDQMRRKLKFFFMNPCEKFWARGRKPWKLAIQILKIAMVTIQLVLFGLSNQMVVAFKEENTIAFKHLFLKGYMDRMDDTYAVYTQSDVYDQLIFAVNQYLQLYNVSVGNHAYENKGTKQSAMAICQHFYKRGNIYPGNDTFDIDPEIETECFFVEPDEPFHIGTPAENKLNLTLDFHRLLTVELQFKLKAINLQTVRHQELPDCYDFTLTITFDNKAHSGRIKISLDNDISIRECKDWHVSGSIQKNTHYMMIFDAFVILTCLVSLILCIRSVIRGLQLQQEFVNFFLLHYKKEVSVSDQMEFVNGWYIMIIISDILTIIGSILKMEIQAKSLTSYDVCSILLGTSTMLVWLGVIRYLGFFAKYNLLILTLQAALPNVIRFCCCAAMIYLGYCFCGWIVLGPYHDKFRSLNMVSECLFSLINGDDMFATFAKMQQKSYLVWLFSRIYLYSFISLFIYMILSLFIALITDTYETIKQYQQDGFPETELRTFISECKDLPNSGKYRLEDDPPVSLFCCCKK
# measurement description: Fluorescent TRPML3 assay (as for TRPML1)
# Assay type: cell-based
# reported conditions: Table 3, compounds 101-177
pEC50: −log10 of the molar value.
reported endpoint: pEC50

Task: What is its pEC50 for TRPML3 (Homo sapiens)? Entry: CC(C)(C)C(=O)N1CCN(c2ncnc3c2c(-c2ccccc2F)cn3-c2cc(C#N)ccn2)CC1 [Compound 108]
Result: > 7.00

Task: What is its pEC50 for TRPML3 (Homo sapiens)? Entry: CC(C)C(=O)N1CCN(c2ncnc3c2c(-c2ccccc2F)cn3-c2cc(C#N)n(C)n2)[C@@H](C)C1 [Compound 146]
Result: 6.30 to 7.00

Task: What is its pEC50 for TRPML3 (Homo sapiens)? Entry: C[C@H]1CN(C(=O)C2CC2)CCN1c1ncnc2c1c(-c1ccccc1)cn2-c1cc(C#N)ccn1 [Compound 123]
Result: 6.30 to 7.00

Task: What is its pEC50 for TRPML3 (Homo sapiens)? Entry: CC(C)(O)C(=O)N1CCN(c2ncnc3c2c(-c2ccccc2F)cn3-c2cc(C#N)ccn2)C(C)(C)C1 [Compound 170]
Result: > 7.00
